FYI, the data here is from ChEMBL document CHEMBL1136602.

biological target: Sigma non-opioid intracellular receptor 1 (Homo sapiens); experiment: Binding affinity towards Sigma-1 receptor
Sequence (Q99720 whole entry): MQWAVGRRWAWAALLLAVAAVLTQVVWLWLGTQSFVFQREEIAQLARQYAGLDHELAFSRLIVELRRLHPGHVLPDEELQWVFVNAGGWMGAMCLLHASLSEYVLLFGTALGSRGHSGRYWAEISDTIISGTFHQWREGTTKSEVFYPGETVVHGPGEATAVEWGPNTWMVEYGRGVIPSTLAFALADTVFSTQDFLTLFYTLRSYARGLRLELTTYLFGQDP
With a cut-off of 0.5 nM, any Ki strictly below it is called t; any Ki meeting it or above is called f.

Input smiles: COc1cccc(CN2CCN(Cc3ccccc3)CC2)c1
Classification: t
--
Input smiles: Clc1ccc(CN2CCN(Cc3ccccc3)CC2)cc1Cl
Classification: f
--
Input smiles: Clc1cccc(CN2CCN(Cc3ccccc3)CC2)c1
Classification: t
--
Input smiles: Clc1ccc(CN2CCN(Cc3ccccc3)CC2)cc1
Classification: f
--
Input smiles: Clc1ccccc1CN1CCN(Cc2ccccc2)CC1
Classification: f
--
Input smiles: Clc1ccc(CN2CCN(Cc3ccccc3)CC2)c(Cl)c1
Classification: f
--
Input smiles: COc1ccc(CN2CCN(Cc3ccccc3)CC2)cc1
Classification: t

###

Entries and their pKi
target: Sigma 2 receptor; assay: Binding affinity towards Sigma-2 receptor
pKi: −log10 of the molar value.

Input smiles: COc1ccc(CN2CCN(Cc3ccccc3)CC2)cc1
pKi: 6.79

Input smiles: Clc1cccc(CN2CCN(Cc3ccccc3)CC2)c1
pKi: 7.25

Input smiles: Clc1ccccc1CN1CCN(Cc2ccccc2)CC1
pKi: 6.28

Input smiles: Clc1ccc(CN2CCN(Cc3ccccc3)CC2)cc1
pKi: 6.73

Input smiles: Clc1ccc(CN2CCN(Cc3ccccc3)CC2)cc1Cl
pKi: 8.12

Input smiles: c1ccc(CN2CCN(Cc3ccccc3)CC2)cc1
pKi: 5.89

Input smiles: Clc1ccc(CN2CCN(Cc3ccccc3)CC2)c(Cl)c1
pKi: 6.91

Input smiles: COc1cccc(CN2CCN(Cc3ccccc3)CC2)c1
pKi: 6.97

Input smiles: CN(CCc1ccc(Cl)c(Cl)c1)CCN1CCCC1
pKi: 8.10
